Data credit: patent US20240150321A1

Test system: NF-kB reporter in Jurkat cells
Assay Summary: NF-kB reporter assay in Jurkat cells stimulated with aCD3/aCD28/PMA
Type: cell-based
Condition Label: Homo sapiens; Jurkat cells, 1 hr compound pre-incubation, aCD3/aCD28/PMA stimulation 4 hr, One-Glo readout; read-out: NF-kB Reporter Assay IC50
Listed next: entries and their corresponding IC50.
Observation Type: IC50

[[record]]
compound_smiles = "CCc1ccc2cnn(C)c2c1NS(=O)(=O)c1cnn(-c2ccnc(OC(F)(F)F)c2)c1"
observed_measurement = "1000 to 2500 nM"

[[record]]
compound_smiles = "COc1ccc2cnn(C)c2c1NS(=O)(=O)c1cnn(-c2cc(N3CC(C)C3)ccn2)c1"
observed_measurement = "< 400 nM"

[[record]]
compound_smiles = "Cc1n[nH]c2cccc(NS(=O)(=O)c3cnn(-c4cc(C5(O)CCCC5)ccn4)c3)c12"
observed_measurement = "< 400 nM"

[[record]]
compound_smiles = "Cn1ncc2cccc(NS(=O)(=O)c3cnn(-c4cc(C5CCOCC5)ccn4)c3)c21"
observed_measurement = "< 400 nM"


---

Listed next: entries and their corresponding IC50.
Test system: NF-kB reporter in Jurkat cells
Assay Summary: NF-kB reporter assay in Jurkat cells stimulated with aCD3/aCD28/PMA
Type: cell-based
Condition Label: Homo sapiens; Jurkat cells, 1 hr compound pre-incubation, aCD3/aCD28/PMA stimulation 4 hr, One-Glo readout; read-out: NF-kB Reporter Assay IC50
Observation Type: IC50

[[record]]
molecule = "Cn1ncc2cccc(NS(=O)(=O)c3cnn(-c4cc(N5CC(C)(C#N)C5)ccn4)c3)c21"
observed_measurement = "< 400 nM"

[[record]]
molecule = "COc1ncc2cnn(C)c2c1NS(=O)(=O)c1cnn(-c2cc(C(F)(F)F)n(C)n2)c1"
observed_measurement = "400 to 1000 nM"

[[record]]
molecule = "COc1ccc2cnn(C)c2c1NS(=O)(=O)c1cnn(-c2cc(C(C)O)ccn2)c1 (stereo not drawn)"
observed_measurement = "< 400 nM"

[[record]]
molecule = "COc1ccc2cnn(C)c2c1NS(=O)(=O)c1cnn(-c2cc(N3CC(OC)C3)ccn2)c1"
observed_measurement = "< 400 nM"

[[record]]
molecule = "Cn1ncc2cccc(NS(=O)(=O)c3cnn([C@H]4CCCN(CC(F)(F)F)C4)c3)c21"
observed_measurement = "1000 to 2500 nM"

[[record]]
molecule = "COc1ccc2cnn(C)c2c1NS(=O)(=O)c1cnn(-c2cc(N3CCCC3)ccn2)c1"
observed_measurement = "< 400 nM"

[[record]]
molecule = "COc1ccc2cnn(C)c2c1NS(=O)(=O)c1cnn(-c2cc(C(F)(F)F)n(C)n2)c1"
observed_measurement = "< 400 nM"

[[record]]
molecule = "COc1ncc2cnn(C)c2c1NS(=O)(=O)c1cnn(-c2cc(N3CC[C@H](C)C3)ccn2)c1"
observed_measurement = "< 400 nM"

[[record]]
molecule = "CCc1ccc2cnn(C)c2c1NS(=O)(=O)c1cnn(-c2cc(Cl)ccn2)c1"
observed_measurement = "< 400 nM"

[[record]]
molecule = "COc1ccc2cnn(C)c2c1NS(=O)(=O)c1cnn(-c2cc(C(C)(F)F)ccn2)c1"
observed_measurement = "< 400 nM"

[[record]]
molecule = "CN1CC(F)(c2ccnc(-n3cc(S(=O)(=O)Nc4cccc5cnn(C)c45)cn3)c2)C1"
observed_measurement = "< 400 nM"

[[record]]
molecule = "COCC(F)(COC)c1ccnc(-n2cc(S(=O)(=O)Nc3cccc4cnn(C)c34)cn2)c1"
observed_measurement = "> 2500 nM"

[[record]]
molecule = "COc1ccc2cnn(C)c2c1NS(=O)(=O)c1cnn(-c2cc(C3(C#N)CCCC3)ccn2)c1"
observed_measurement = "< 400 nM"

[[record]]
molecule = "CC1CC(F)(c2ccnc(-n3cc(S(=O)(=O)Nc4cccc5cnn(C)c45)cn3)c2)C1 (stereo not drawn)"
observed_measurement = "< 400 nM"

[[record]]
molecule = "COc1cnc(C(F)(F)F)cc1-n1cc(S(=O)(=O)Nc2c(OC)ccc3cnn(C)c23)cn1"
observed_measurement = "< 400 nM"

[[record]]
molecule = "C[C@@H](O)c1ccnc(-n2cc(S(=O)(=O)Nc3cccc4cnn(C)c34)cn2)c1"
observed_measurement = "< 400 nM"

[[record]]
molecule = "C#Cc1ccc2cnn(C)c2c1NS(=O)(=O)c1cnn(-c2ccnc(C(F)(F)F)c2)c1"
observed_measurement = "400 to 1000 nM"

[[record]]
molecule = "COC1(c2ccnc(-n3cc(S(=O)(=O)Nc4cccc5cnn(C)c45)cn3)c2)CC(F)C1 (stereo not drawn)"
observed_measurement = "< 400 nM"

[[record]]
molecule = "COc1ccc2cnn(C)c2c1NS(=O)(=O)c1cnn(-c2cnn3c2COCCC3)c1"
observed_measurement = "1000 to 2500 nM"

[[record]]
molecule = "CC[C@@](C)(O)c1ccnc(-n2cc(S(=O)(=O)Nc3c(OC)ccc4cnn(C)c34)cn2)c1"
observed_measurement = "< 400 nM"

[[record]]
molecule = "COC1CN(c2ccnc(-n3cc(S(=O)(=O)Nc4cccc5cnn(C)c45)cn3)c2)C1"
observed_measurement = "< 400 nM"

[[record]]
molecule = "[2H]C([2H])([2H])n1ncc2cnc(OC)c(NS(=O)(=O)c3cnn(-c4cc(C(C)(F)F)ccn4)c3)c21"
observed_measurement = "< 400 nM"

[[record]]
molecule = "[2H]C([2H])([2H])n1ncc2cnc(OC)c(NS(=O)(=O)c3cnn(-c4cc(C(F)(F)F)ccn4)c3)c21"
observed_measurement = "< 400 nM"

[[record]]
molecule = "COc1ccc2cnn(C)c2c1NS(=O)(=O)c1cnn(-c2cc(C3(F)COC3)ccn2)c1"
observed_measurement = "< 400 nM"

[[record]]
molecule = "Cn1ncc2cccc(NS(=O)(=O)c3cnn(-c4cc(C5(C#N)CCC5)ccn4)c3)c21"
observed_measurement = "< 400 nM"

[[record]]
molecule = "Cn1ncc2cccc(NS(=O)(=O)c3cnn(-c4cc(N5CC[C@H](F)C5)ccn4)c3)c21"
observed_measurement = "< 400 nM"

[[record]]
molecule = "COCC(O)(COC)c1ccnc(-n2cc(S(=O)(=O)Nc3cccc4cnn(C)c34)cn2)c1"
observed_measurement = "1000 to 2500 nM"

[[record]]
molecule = "COC[C@@](C)(OC)c1ccnc(-n2cc(S(=O)(=O)Nc3cccc4cnn(C)c34)cn2)c1"
observed_measurement = "< 400 nM"

[[record]]
molecule = "COc1ccc2cnn(C)c2c1NS(=O)(=O)c1cnn(-c2cc(C3(O)CC(C)C3)ccn2)c1 (stereo not drawn)"
observed_measurement = "< 400 nM"

[[record]]
molecule = "COc1ccc2cnn(C)c2c1NS(=O)(=O)c1cnn(-c2cc(C(F)(F)F)nn2C)c1"
observed_measurement = "1000 to 2500 nM"

